The following binders are shown together with reported ELISA ratio values.
biological target: Feline_OSMR_hlgG1_Fc (feline); assay: indirect ELISA, fOSMR coated; OD ratio to antibody expression control
Sequence (chain, as listed by the source limits assumed, form in doubt): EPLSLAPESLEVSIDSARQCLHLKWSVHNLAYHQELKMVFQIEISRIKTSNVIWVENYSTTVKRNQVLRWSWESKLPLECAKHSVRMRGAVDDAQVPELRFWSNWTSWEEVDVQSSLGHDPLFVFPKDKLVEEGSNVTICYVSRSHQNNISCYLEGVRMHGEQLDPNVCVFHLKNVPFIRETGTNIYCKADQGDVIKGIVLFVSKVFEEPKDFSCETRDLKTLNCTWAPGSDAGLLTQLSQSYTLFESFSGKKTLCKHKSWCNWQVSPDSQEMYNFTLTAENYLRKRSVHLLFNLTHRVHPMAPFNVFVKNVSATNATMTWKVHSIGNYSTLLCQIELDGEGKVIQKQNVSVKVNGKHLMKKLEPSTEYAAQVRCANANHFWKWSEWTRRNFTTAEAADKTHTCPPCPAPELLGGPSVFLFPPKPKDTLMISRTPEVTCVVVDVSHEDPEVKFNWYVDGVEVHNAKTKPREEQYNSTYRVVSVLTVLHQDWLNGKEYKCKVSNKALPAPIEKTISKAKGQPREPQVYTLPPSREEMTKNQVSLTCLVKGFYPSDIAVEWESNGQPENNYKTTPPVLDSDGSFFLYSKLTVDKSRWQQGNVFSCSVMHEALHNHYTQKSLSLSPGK
Measurement label: ELISA ratio (OD ratio)

INSERT INTO results (binder, readout_units, experimental_result) VALUES
  ('Mu_09E09_VH (SEQ ID NO: 35)_P100A (antibody, V domains shown) VH: DVKLVESGEGLVKPGGSLKLSCAASGFTFSSYAMSWVRQTPEKRLEWVAYISSGGDYIYYADTVKGRFTISRDNARNTLYLQMSSLKSEDTAMYYCTRDAITGTFAYWGQGTLVTVSA VL: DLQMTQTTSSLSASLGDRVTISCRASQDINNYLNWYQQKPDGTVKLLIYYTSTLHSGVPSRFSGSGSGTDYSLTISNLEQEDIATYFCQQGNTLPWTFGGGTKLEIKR', 'OD ratio', 0.946),
  ('Mu_09E09_VL (SEQ ID NO: 37)_N34A (antibody, V domains shown) VH: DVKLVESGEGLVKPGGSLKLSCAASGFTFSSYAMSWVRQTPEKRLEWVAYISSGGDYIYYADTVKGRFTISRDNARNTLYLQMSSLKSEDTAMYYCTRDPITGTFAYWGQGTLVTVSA VL: DLQMTQTTSSLSASLGDRVTISCRASQDINNYLAWYQQKPDGTVKLLIYYTSTLHSGVPSRFSGSGSGTDYSLTISNLEQEDIATYFCQQGNTLPWTFGGGTKLEIKR', 'OD ratio', 0.023),
  ('Mu_02D09_VL (SEQ ID NO: 33)_W94A (antibody, V domains shown) VH: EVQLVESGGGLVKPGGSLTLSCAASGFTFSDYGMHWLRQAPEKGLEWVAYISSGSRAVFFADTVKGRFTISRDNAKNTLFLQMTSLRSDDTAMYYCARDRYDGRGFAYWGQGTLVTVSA VL: DIVLTQSPATLSVTPGDSVSLSCRASQSISNNLHWYQQTSHESPRLLITYASQSISGIPSRFSGSGSGTDFTLSINSVETEDFGMYFCQQSNSAPLTFGAGTKLELKR', 'OD ratio', 0),
  ('Mu_02D09_VL (SEQ ID NO: 33)_L96A (antibody, V domains shown) VH: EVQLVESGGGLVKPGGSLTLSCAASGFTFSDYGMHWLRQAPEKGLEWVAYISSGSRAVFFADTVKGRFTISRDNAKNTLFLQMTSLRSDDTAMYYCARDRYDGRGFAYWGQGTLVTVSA VL: DIVLTQSPATLSVTPGDSVSLSCRASQSISNNLHWYQQTSHESPRLLITYASQSISGIPSRFSGSGSGTDFTLSINSVETEDFGMYFCQQSNSWPATFGAGTKLELKR', 'OD ratio', 1.27),
  ('mouse: canine 19F07 chimera (antibody, V domains shown) VH: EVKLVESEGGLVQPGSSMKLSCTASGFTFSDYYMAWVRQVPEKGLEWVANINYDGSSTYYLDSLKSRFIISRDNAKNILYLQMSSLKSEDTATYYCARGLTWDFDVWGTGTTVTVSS VL: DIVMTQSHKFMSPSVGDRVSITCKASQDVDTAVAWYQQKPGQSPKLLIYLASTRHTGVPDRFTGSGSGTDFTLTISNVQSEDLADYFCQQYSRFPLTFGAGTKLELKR', 'OD ratio', 1.72),
  ('Mu_10F07_VL (SEQ ID NO: 41)_Y50A (antibody, V domains shown) VH: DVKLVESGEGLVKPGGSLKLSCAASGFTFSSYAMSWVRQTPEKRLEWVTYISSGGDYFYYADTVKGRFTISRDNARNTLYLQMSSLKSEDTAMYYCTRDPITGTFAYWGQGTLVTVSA VL: DIQMTQTTSSLSASLGDRVTISCRASQDITNYLNWYQQKPDGTVKLLIYATSTLHSGVPSRFSGSGSGTDFSLTISNLEQEDIATYFCQQGHMLPWTFGGGTKLEIKR', 'OD ratio', 0);
